# ASSAY SYSTEM: RSV-F of RSV subtype A strain A2 (1540) (respiratory syncytial virus subtype A, …, UniProt P03420 26-574)
# ASSAY PROTOCOL: cell-based or functional assay
METRIC NAME: IC50 [pM] for RSV A2 Neutralization, Trial 1

# BINDER, RECORDED RESULT
records = [
    ("H1H3597P (antibody, V domains shown) VH: EVQLVESGGGLVQPGGSLRLSCGASGFTFRDFDMNWVRQAPGRGLEWVSGIGGSGGNTYYADSVKGRFTISRDNSKNTLFLQMSSLRAEDTAVYYCVKDPYGDYRNYYGMDVWGQGTTVTVSS VL: DIVMTQSPLSLPVTPGEPASISCRSSQSLLHSNGYNYLDWYLQKPGQSPQLLIYLGSNRASGVPDRFRGSGSDKDFTLKISRVGAEDVGVYYCMQALQTITFGQGTRLEIK", "> 10000 pM"),
    ("H1H3604P (antibody, V domains shown) VH: QVQLVESGGGLVKPGGSLRLSCAASGFTFSDYYMTWIRQAPGRGLEWVSYISDTGSHLYYADSVRGRFTISRDNAKNSLYLQMNNLRAEDTAVYYCARDQDGEMELRFFDYWGQGTLVTVSS VL: EIVLTQSPATLSLSPGERGTLSCRASQSINNYLAWYQQKPGQAPRLLIFDASNRATGIPARFSGSGSGTDFTLTISRIEPEDFAVYYCQQRTNWPLTFGGGTKVEIK", "> 10000 pM"),
]
